biological target: yeast mitochondrial RNA polymerase (scMtRNAP) WT;MTF1 (yeast mitochondrial transcription factor) (Saccharomyces cerevisiae?;Saccharomyces …, UniProt P13433;P14908 1-1351;1-341, |); experiment: EMSA
Sequence (P13433 whole entry, chain 1 of 2): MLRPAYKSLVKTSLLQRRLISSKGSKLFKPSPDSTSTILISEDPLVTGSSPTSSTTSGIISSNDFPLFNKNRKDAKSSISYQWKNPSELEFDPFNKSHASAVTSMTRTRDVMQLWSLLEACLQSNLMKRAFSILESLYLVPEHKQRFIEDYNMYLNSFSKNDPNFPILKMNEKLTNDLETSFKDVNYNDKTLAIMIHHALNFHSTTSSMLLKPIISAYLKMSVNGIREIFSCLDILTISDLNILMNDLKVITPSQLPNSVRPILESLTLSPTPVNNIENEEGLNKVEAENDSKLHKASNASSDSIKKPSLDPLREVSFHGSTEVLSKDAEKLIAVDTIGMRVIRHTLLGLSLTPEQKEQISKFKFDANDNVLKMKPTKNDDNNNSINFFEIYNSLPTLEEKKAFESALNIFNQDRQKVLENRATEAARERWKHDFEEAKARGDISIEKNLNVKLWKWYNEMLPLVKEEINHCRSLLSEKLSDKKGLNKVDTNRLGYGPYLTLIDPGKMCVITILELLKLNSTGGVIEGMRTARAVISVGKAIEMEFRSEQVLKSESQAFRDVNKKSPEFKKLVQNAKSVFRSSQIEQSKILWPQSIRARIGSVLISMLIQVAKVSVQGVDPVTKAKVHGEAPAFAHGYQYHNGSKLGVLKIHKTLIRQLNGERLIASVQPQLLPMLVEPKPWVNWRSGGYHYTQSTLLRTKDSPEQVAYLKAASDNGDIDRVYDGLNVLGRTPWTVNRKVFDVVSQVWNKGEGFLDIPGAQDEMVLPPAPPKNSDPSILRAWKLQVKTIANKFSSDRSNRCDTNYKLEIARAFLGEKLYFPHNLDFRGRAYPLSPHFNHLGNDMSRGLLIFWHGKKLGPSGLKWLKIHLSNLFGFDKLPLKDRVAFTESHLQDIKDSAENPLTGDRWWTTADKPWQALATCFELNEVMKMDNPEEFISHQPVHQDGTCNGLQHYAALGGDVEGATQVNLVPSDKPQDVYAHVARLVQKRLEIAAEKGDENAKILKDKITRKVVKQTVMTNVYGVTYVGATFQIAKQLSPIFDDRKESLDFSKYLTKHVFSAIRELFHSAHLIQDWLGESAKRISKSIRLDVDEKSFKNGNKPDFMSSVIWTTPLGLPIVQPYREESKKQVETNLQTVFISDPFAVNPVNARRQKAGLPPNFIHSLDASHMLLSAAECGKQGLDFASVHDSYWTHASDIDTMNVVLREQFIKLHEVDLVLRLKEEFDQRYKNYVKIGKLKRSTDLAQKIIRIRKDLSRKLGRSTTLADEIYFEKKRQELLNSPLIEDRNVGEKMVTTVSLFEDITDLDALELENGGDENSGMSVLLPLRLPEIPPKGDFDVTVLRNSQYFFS
Sequence (P14908 whole entry, chain 2 of 2): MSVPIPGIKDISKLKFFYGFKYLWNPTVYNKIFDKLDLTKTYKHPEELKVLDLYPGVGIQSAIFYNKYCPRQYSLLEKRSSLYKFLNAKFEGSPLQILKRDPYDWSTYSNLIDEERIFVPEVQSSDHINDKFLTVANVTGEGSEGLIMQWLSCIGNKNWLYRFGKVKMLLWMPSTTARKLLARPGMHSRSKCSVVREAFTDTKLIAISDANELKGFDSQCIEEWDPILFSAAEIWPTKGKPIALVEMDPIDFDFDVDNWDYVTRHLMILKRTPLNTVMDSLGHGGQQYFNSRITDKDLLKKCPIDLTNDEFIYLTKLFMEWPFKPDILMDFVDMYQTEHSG
Kd values, listed per item

binder	Kd
33 bp Bubble (pre-melted) promoter (dsDNA) DNA 1: CGCGTAAAACTATTCTTTATTACTTATATCGCG DNA 2: CGCGATATGCAGCTTAAAGAATAGTTTTACGCG	160 nM

Query binder follows.
Entry 33 bp Duplex promoter (dsDNA) DNA 1: CGCGTAAAACTATTCTTTATTACTTATATCGCG DNA 2: CGCGATATAAGTAATAAAGAATAGTTTTACGCG has what Kd? 480 nM

Just for reference, paper PMC3361065 is where these values come from.
